Source: ChEMBL document CHEMBL1139236

Target: Cathepsin G (Homo sapiens)
Sequence (whole entry): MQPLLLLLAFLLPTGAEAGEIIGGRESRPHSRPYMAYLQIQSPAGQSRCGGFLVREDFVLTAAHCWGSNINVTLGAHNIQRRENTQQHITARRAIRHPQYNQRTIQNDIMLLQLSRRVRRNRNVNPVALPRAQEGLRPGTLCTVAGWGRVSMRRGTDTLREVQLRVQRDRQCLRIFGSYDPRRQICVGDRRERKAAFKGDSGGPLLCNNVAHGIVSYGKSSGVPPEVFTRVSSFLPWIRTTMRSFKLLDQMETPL
Assay: Inhibition of cathepsin G assessed as association equilibrium constant relative to [Phe5]SFTI-1
Bridge positions count the residues as written; N and C are the ends. Square brackets hold non-standard residues; d marks the D form. Peptide text beside a SMILES is read from it. Phe(4-guanidino) = N=C(N)Nc1ccc(C[C@H](N)C(=O)O)cc1
property name: Ratio

Note to self: Ratio of CC[C@H](C)[C@@H]1NC(=O)[C@@H]2CCCN2C(=O)[C@@H]2CCCN2C(=O)[C@H]([C@@H](C)CC)NC(=O)[C@H](CO)NC(=O)[C@H](Cc2ccc(NC(=N)N)cc2)NC(=O)[C@H]([C@@H](C)O)NC(=O)[C@@H](NC(=O)[C@H](CCCNC(=N)N)NC(=O)CN)CSSC[C@@H](C(=O)N[C@@H](Cc2ccccc2)C(=O)N2CCC[C@H]2C(=O)N[C@@H](CC(=O)O)C(=O)O)NC1=O (H-GRCT[Phe(4-guanidino)]SIPPICFPD-OH; disulfide 3-11) with Cathepsin G (Homo sapiens) was 2.19
